Every entry's value here was drawn from patent US20240336649.

- TEST_TARGET: Max-Max 14 (S-aryl linked covalent dimer) (UniProt P61244;P61244 SEQ:1-80,SEQ:1-80)
- Sequence (P61244 23-102, chain 1 of 2): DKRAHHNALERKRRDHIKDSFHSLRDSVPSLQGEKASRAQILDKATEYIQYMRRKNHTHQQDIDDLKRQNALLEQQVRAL
- Sequence (P61244 23-102, chain 2 of 2): as the sequence (P61244 23-102, chain 1 of 2) above
- PROTOCOL_NOTES: BLI
- EXPERIMENTAL_SETUP: protein: synthetic; tags: chemically synthesized; C-terminal cysteines crosslinked by dithiobenzene; chain copies: 2 stated
PARAMETER_MEASURED: pKd
Scale explanation: pKd corresponds to minus log10 of a concentration expressed in moles per litre.

stdin: Determine from records and report pKd for E-box DNA probe (22 bp) (dsDNA) DNA 1: CCGGCTGACACGTGGTATTAAT DNA 2: ATTAATACCACGTGTCAGCCGG
stdout: 7.30
